System: HeLa
EXPERIMENTAL_PROTOCOL: Cancer cell growth inhibition, HeLa
Format: cell-based
CONDITIONS_USED: Homo sapiens; Table 2, Cervical, HeLa; read-out: cancer cell growth suppression
REPORTED_PROPERTY: IC50 (nM)
Just the number please, in nM, no unit attached.

Query: Fill in the blank: the reported IC50 of Cc1cc(C)c(-c2csc(C(=O)c3ccncc3)n2)c(C)c1 [INH41] is ____.
Result: 670

* * *

Recorded IC50 by entry
System: MDA-MB-231
EXPERIMENTAL_PROTOCOL: Cancer cell growth inhibition, MDA-MB-231
Type: cell-based
CONDITIONS_USED: Homo sapiens, Table 2, Breast adenocarcinoma, read-out: cancer cell growth suppression

| STRUCTURE_SMILES | IC50 |
| --- | --- |
| Cc1cc(C)c(-c2csc(C(=O)c3ccncc3)n2)c(C)c1 | 0.4 µM |

Let's switch to this compound now.
Query: Fill in the blank: the reported IC50 of Cc1cc(N2CCCCC2)cc(C)c1-c1csc(NC(=O)c2ccncc2)n1 is ____.
Result: 0.14 µM

Sourced from patent US9670197B2
